- System: Kochia (Kochia scoparia)
- ASSAY_SUMMARY: Test A preemergence
- Assay type: in vivo
- MEASUREMENT_CONTEXT: Bassia scoparia, pre-emergence, 240 h, Preemergence, 125 g ai/ha; 0 to 100 scale (0 no effect, 100 complete control); read-out: Plant response rating, Kochia
- Source text: […]
MEASURED_ENDPOINT: pest or weed control at 125 g/ha (%)
Field: numeric (%). Do not append units.

| COMPOUND | pest or weed control at 125 g/ha [%] |
| --- | --- |
| CN1C[C@H](c2ccc3c(c2)OC(F)(F)O3)[C@@H](C(=O)Nc2cccnc2F)C1=O | 80 |
| CN1C[C@H](c2ccc(Br)cc2)[C@@H](C(=O)Nc2ccc(F)c(F)c2F)C1=O | 70 |

Using the record for CC(C)c1cccc([C@H]2CN(C)C(=O)[C@@H]2C(=O)Nc2cccc(F)c2F)c1 , report its pest or weed control at 125 g/ha.
80

Using the record for O=C1NC[C@H](c2nccc(C(F)(F)F)n2)[C@H]1C(=O)Nc1cccc(F)c1F , report its pest or weed control at 125 g/ha.
0

====

- Test system: blackgrass (Alopecurus myosuroides)
- ASSAY_SUMMARY: Test A postemergence
- Type: in vivo
- MEASUREMENT_CONTEXT: Alopecurus myosuroides, post-emergence, 240 h, 125 g ai/ha, postemergence, visual injury vs untreated controls after approx. 10 d; 0 = no effect, 100 = complete control; read-out: Blackgrass plant response rating (0 to 100 scale)
- Description: […]
MEASURED_ENDPOINT: pest or weed control at 125 g/ha (%)
Field: numeric (%). Do not append units.

| MOLECULE | MEASURED_ENDPOINT | MEASURED |
| --- | --- | --- |
| CSc1ccccc1NC(=O)[C@H]1C(=O)N(C)C[C@@H]1c1cccc(C(F)(F)F)c1 [Compound 1249] | pest or weed control at 125 g/ha | 40 |
| CSc1ccccc1NC(=O)[C@H]1C(=O)N(C)C[C@@H]1c1ccc(C(F)(F)F)nc1 [Compound 1198] | pest or weed control at 125 g/ha | 20 |

Using the record for CCc1ccc([C@H]2CNC(=O)[C@@H]2C(=O)Nc2ccccc2SC)cc1 [Compound 1178] , report its pest or weed control at 125 g/ha.
0

Using the record for Cc1ccc([C@H]2CCN(C)C(=O)[C@@H]2C(=O)Nc2cccc(F)c2F)cc1 [Compound 1220] , report its pest or weed control at 125 g/ha.
30

Using the record for Cc1ccc([C@H]2CN(C)C(=O)[C@@H]2C(=O)Nc2cccc(F)c2C#N)cc1 [Compound 1189] , report its pest or weed control at 125 g/ha.
40

Using the record for O=C1NCC[C@H](c2cccc(Cl)c2)[C@H]1C(=O)Nc1ccccc1F [Compound 1159] , report its pest or weed control at 125 g/ha.
0

Using the record for CN1C[C@H](c2ccc(C(F)F)cc2)[C@@H](C(=O)Nc2ccccc2S(C)(=O)=O)C1=O [Compound 1175] , report its pest or weed control at 125 g/ha.
50

Using the record for N#Cc1cc([C@H]2CNC(=O)[C@]2(O)C(=O)Nc2ccccc2F)ccc1F [Compound 1200] , report its pest or weed control at 125 g/ha.
0

====

Overview of reported pest or weed control at 250 g/ha across a group of compounds:
- Tested on: velvetleaf (Abutilon theophrasti)
- ASSAY_SUMMARY: Test G Post-Emergence Protocol
- Format: in vivo
- MEASUREMENT_CONTEXT: Abutilon theophrasti, post-emergence, 312 h, 250 g ai/ha, evaluated after 13 days, read-out: damage to plant, Velvetleaf (100=total damage to plant; 0=no damage to plant)
Record the result as number plus unit.

| COMPOUND | ASSAY_TARGET | pest or weed control at 250 g/ha |
| --- | --- | --- |
| Cc1nc(F)ccc1[C@@H]1CN(C)C(=O)[C@H]1C(=O)Nc1cccc(F)c1F (racemic) | velvetleaf (Abutilon theophrasti) | 20% |

Using the record for Cc1ncc(NC(=O)[C@@H]2C(=O)N(C)C[C@H]2c2ccc(C(F)(F)F)cc2)s1 (racemic) , report its pest or weed control at 250 g/ha.
10%

Using the record for COc1cccc(NC(=O)[C@@H]2C(=O)N(C)C[C@H]2c2ccc(C(F)(F)F)cc2)n1 (racemic) , report its pest or weed control at 250 g/ha.
50%

Using the record for Cc1n[nH]c(NC(=O)[C@@H]2C(=O)N(C)C[C@H]2c2ccc(C(F)(F)F)cc2)c1C#N (racemic) , report its pest or weed control at 250 g/ha.
0%

Using the record for CN1C[C@H](c2ccc(C(F)(F)F)cc2)[C@@H](C(=O)Nc2nccc(C(F)(F)F)c2F)C1=O (racemic) , report its pest or weed control at 250 g/ha.
0%

Using the record for CN1C[C@H](c2ccc(C(F)(F)F)cc2)[C@@H](C(=O)Nc2cccc(C(F)F)c2)C1=O (racemic) , report its pest or weed control at 250 g/ha.
0%

Using the record for CN1C[C@@H](c2ccc(C(F)(F)F)cc2)[C@H](C(=O)Nc2cccc(F)n2)C1=O , report its pest or weed control at 250 g/ha.
0%

Using the record for CN1C[C@@H](c2ccc(C(F)(F)F)cc2)[C@H](C(=O)Nc2cc(C(F)(F)F)[nH]n2)C1=O (racemic) , report its pest or weed control at 250 g/ha.
0%

====

- Tested on: Galium (catchweed bedstraw, Galium aparine)
- ASSAY_SUMMARY: Test A postemergence
- Format: in vivo
- MEASUREMENT_CONTEXT: 500 g ai/ha, postemergence; visual injury, 0 to 100 scale (0 no effect, 100 complete control), approx. 10 d
MEASURED_ENDPOINT: Plant response rating, Galium
Form: value (number only, do not type unit).

Observe how each entry below is paired with its result.
| COMPOUND | Plant response rating, Galium |
| --- | --- |
| Cc1ccc(C2CNC(=O)C2C(=O)Nc2cccc(F)c2F)cc1C(F)(F)F (racemic) [Compound 679] | 60 |
| CN1CC(c2ccc(C(C)(F)F)cc2)C(C(=O)Nc2ccccc2F)C1=O (centres unmarked) [Compound 691] | 70 |
| CN1CC(c2cc(F)cc(F)c2)C(C(=O)Nc2ccccc2C(F)(F)F)C1=O (centres unmarked) [Compound 647] | 50 |
| CN1CC(c2cccc(C(F)(F)F)c2)C(C(=O)Nc2ccccc2S(C)(=O)=O)C1=O (centres unmarked) [Compound 637] | 50 |

# context switch: different compound, same Plant response rating, Galium
Using the record for Cc1ccc(C2CNC(=O)C2C(=O)Nc2ccc(F)c(F)c2F)cc1C(F)(F)F (racemic) [Compound 681] , report its Plant response rating, Galium.
50

====

- Test system: barnyardgrass (Echinochloa crus-galli)
- ASSAY_SUMMARY: Test G Pre-Emergence Protocol
- Assay type: in vivo
- MEASUREMENT_CONTEXT: Echinochloa crus-galli, pre-emergence, 312 h, 62.5 g ai/ha, evaluated after 13 days, 100=total damage to plant, 0=no damage to plant, read-out: Barnyardgrass damage rating
MEASURED_ENDPOINT: pest or weed control at 62.5 g/ha (%)
Field: numeric (%). Do not append units.

Observe how each entry below is paired with its result.
| COMPOUND | ASSAY_TARGET | UNIT_DESCRIPTOR | pest or weed control at 62.5 g/ha |
| --- | --- | --- | --- |
| CON1C[C@@H](c2cccc(C(F)(F)F)c2)[C@H](C(=O)Nc2cccc(F)c2F)C1=O (racemic) | barnyardgrass (Echinochloa crus-galli) | % | 60 |
| COc1c(C)cc(C2CN(C)C(=O)C2C(=O)Nc2cccc(F)c2F)cc1C (stereo not shown) | barnyardgrass (Echinochloa crus-galli) | % | 80 |
| CN1C[C@H](c2ccc(C(F)(F)F)cc2)[C@@H](C(=O)Nc2cnccc2F)C1=O (racemic) | barnyardgrass (Echinochloa crus-galli) | % | 0 |
| CCOc1cc(C2CN(C)C(=O)C2C(=O)Nc2cccc(F)c2F)ccc1OC (stereo not shown) | barnyardgrass (Echinochloa crus-galli) | % | 70 |

Using the record for CN1C[C@H](c2cccc(C(F)(F)F)c2)[C@@H](C(=O)Nc2cnccc2[S+](C)[O-])C1=O (mixture of isomers) , report its pest or weed control at 62.5 g/ha.
0

Using the record for CN1C[C@H](c2cccc(C(F)F)c2)[C@@H](C(=O)Nc2ccccc2S(C)(=O)=O)C1=O (racemic) , report its pest or weed control at 62.5 g/ha.
40

Using the record for Cc1cc([C@H]2CN(C)C(=O)[C@@H]2C(=O)Nc2cccc(F)c2F)cnn1 (racemic) , report its pest or weed control at 62.5 g/ha.
0

====

- System: johnsongrass (Sorghum halepense)
- ASSAY_SUMMARY: Test C preemergence
- Format: in vivo
- MEASUREMENT_CONTEXT: 250 g ai/ha, scale 0 to 100, 0 no effect, 100 complete control
MEASURED_ENDPOINT: Plant response rating, Johnsongrass
Form: value (number only, do not type unit).

Using the record for CN1CC(c2cccc(C(F)(F)F)c2)C(C(=O)Nc2ccccc2S(C)(=O)=O)C1=O (stereo not shown) , report its Plant response rating, Johnsongrass.
85

Using the record for CN1CC(c2cccc(OC(F)(F)C(F)F)c2)C(C(=O)Nc2ccc(F)cc2F)C1=O (stereo not shown) , report its Plant response rating, Johnsongrass.
85

Using the record for O=C1NCC(c2cccc(OC(F)(F)C(F)F)c2)C1C(=O)Nc1ccccc1F (racemic) , report its Plant response rating, Johnsongrass.
85

Using the record for CN1CC(c2cccc(C(F)(F)F)c2)C(C(=O)Nc2cccc(F)c2F)C1=O (stereo not shown) , report its Plant response rating, Johnsongrass.
90
